Parameter: normalized growth. Scope: all listed entries.
test: chemical genetic growth profiling, strain panel (AID 1159580);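 note: tested at 20 µM; growth read once vehicle control cultures reached saturation at 30 °C; 1 = growth at the plate median or of vehicle wells; lower values mean less growth of the strain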; conditions: S. cerevisiae deletion strains, growth OD, locus YOR061W, strain CKA2, active compounds read low
Among all 5,500 compounds or so, about 2,000 (36%) were called active. Another 18% or so got no clear call; they are omitted. The list shows a part of the results.

Worked examples, 5 molecules total:
Molecule: CCC(C)C(OC(C)=O)C(=O)OC1C(O)C2C3(C)C=CC(=O)C(C)(C)C3CC(OC(=O)C(O)C(C)C)C2(C)C23OC2CC(c2ccoc2)C13C (stereo not given)
normalized growth: 1 (inactive)
--
Molecule: C=C1C([C@]2(C)C(CC(=O)OC)[C@@](C)(COC(C)=O)OC(=O)C[C@@H]2OC(C)=O)[C@@H](OC=O)[C@H](OC(=O)C(O)C(C)CC)[C@@]2(C)[C@H](c3ccoc3)CC(=O)C12O (stereo not given in full)
normalized growth: 1 (inactive)
--
Molecule: CC(C)(O)[C@@H]1[C@H]2OC(=O)[C@@H]1[C@]1(O)C[C@H]3O[C@]34C(=O)O[C@H]2[C@]14C
normalized growth: 1.02 (inactive)
--
Molecule: OCCN1C[C@@H](O)[C@@H](O)C(O)C1CO (stereo not given in full)
normalized growth: 1.01 (inactive)
--
Molecule: CCOC(=O)CCC(=O)O[C@H]1[C@H](O[C@@H]2[C@@H](C)[C@H](O[C@H]3C[C@@](C)(OC)[C@@H](O)[C@H](C)O3)[C@@H](C)C(=O)O[C@H](CC)[C@@](C)(O)[C@H](O)[C@@H](C)C(=O)[C@H](C)C[C@@]2(C)O)O[C@H](C)C[C@@H]1N(C)C
normalized growth: 0.966 (inactive)

Attention now shifts to the item below.
# input Name the reported normalized growth value associated with the molecule Cc1ccc(/C=C2\CSc3ccc(F)cc3C2=O)cc1
# output 0.887 (inactive)
